Molecular target: T1, Anti-PSMA Fab (SEQ ID NOs: 19, 20)
T1 construct: In the phage ELISA the Fab was biotinylated and captured on neutravidin coated plates; also called 006 PSMA Fab
Assay: phage binding ELISA; clonal phage on biotinylated anti-PSMA Fab captured on neutravidin, anti-M13 HRP detection
Where no end group is shown, it is not given here.
Listed below: Anti-PSMA Fab (SEQ ID NOs: 19, 20) signal values for each entry.
Please give only the number in your answer, with no unit.

binder="WENWCQPAWMCTGL [Phage-1826]" quantitative_readout=2.33
binder="PERLCTPPWMCLGF [Phage-1817]" quantitative_readout=2.24
binder="MDNWCTPEWMCLGF [Phage-1828]" quantitative_readout=2.3
binder="MDKWCTPPWMCDWL [Phage-1829]" quantitative_readout=2.3
binder="IVKRCEPMWMCAGF (cysteine pairing not given here; also: displayed on phage as pIII fusion, pIII sequence and linker not given here) [Phage-1821]" quantitative_readout=2.38
binder="MERWCVPDWMCATF (cysteine pairing not given here; also: displayed on phage as pIII fusion, pIII sequence and linker not given here) [Phage-1818]" quantitative_readout=2.47
binder="VEKMCRPAWMCWVM [Phage-1824]" quantitative_readout=2.37
binder="ALKLCIPFWMCEGL [Phage-1819]" quantitative_readout=2.44
binder="EPKWCTPAWMCEWM [Phage-1830]" quantitative_readout=2.29
binder="TEIRCTPQWMCLGF [Phage-1823]" quantitative_readout=2.37

(Q) Look up Anti-PSMA Fab (SEQ ID NOs: 19, 20) signal of VLKLCVPPWMCMAQ [Phage-1827] and report it.
(A) 2.32

(Q) Quote Anti-PSMA Fab (SEQ ID NOs: 19, 20) signal reported for WENWCTPAWMCVGF [Phage-1822] please.
(A) 2.37

(Q) Please list Anti-PSMA Fab (SEQ ID NOs: 19, 20) signal recorded for the binder MVKWCTPAWMCEML [Phage-1820]
(A) 2.41

(Q) Please look at this binder and report its Anti-PSMA Fab (SEQ ID NOs: 19, 20) signal: ISKLCTPPWMCEML [Phage-1825]
(A) 2.33
